Values from paper PMC8151276

targetDesc: ADORA2B (Homo sapiens, UniProt P29275)
Construct: purchased Promega (in-house HiBiT-GPCR construct library, NanoBRET)
Sequence (P29275 whole entry): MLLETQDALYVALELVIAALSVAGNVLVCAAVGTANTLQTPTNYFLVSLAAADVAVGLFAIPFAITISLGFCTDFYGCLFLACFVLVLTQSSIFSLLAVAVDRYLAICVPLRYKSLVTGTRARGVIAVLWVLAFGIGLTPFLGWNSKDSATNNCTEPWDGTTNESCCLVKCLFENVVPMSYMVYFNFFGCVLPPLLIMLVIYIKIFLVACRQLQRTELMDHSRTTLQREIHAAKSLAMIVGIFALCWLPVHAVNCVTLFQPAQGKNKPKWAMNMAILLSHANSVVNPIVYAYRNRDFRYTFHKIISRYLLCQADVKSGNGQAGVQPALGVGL
procedureDetails: NanoBRET screen HiBiT-ADORA2B in HEK293
Assay type: binding
testSettings: ADORA2B; tracer 0.1μM
Reported NanoBRET Fold Response values for a set of compounds

Some solved entries appear below for comparison.
COc1ccccc1N1CCN(CCCCN2C(=O)c3ccc(CNC(=O)CCOCCOCCOCCOCCNC(=O)CCc4ccc5n4[B-](F)(F)[N+]4=C(c6ccc[nH]6)C=CC4=C5)cc3C2=O)CC1 [NAN-190-2-NB590] | 0.94
N#CN=C(NCCCOc1cccc(CN2CCCCC2)c1)NCCNC(=O)CCOCCOCCOCCOCCNC(=O)CCc1ccc2n1[B-](F)(F)[N+]1=C(c3ccc[nH]3)C=CC1=C2 [Aminopotentidine-2-NB590] | 1.37
CCCn1c(=O)c2[nH]c(-c3ccc(OCC(=O)NCCNC(=O)CCOCCNC(=O)c4ccc(CNC(=O)CCc5ccc6n5[B-](F)(F)[N+]5=C(c7ccc[nH]7)C=CC5=C6)cc4)cc3)nc2n(CCC)c1=O [XAC-3-NB590] | 8.09

# ---- query compound ----
Param readout= NanoBRET Fold Response; system= ADORA2B (Homo sapiens, UniProt P29275); entry= Cc1cc2c(s1)Nc1ccccc1N=C2N1CCN(CCCNC(=O)CCOCCOCCOCCOCCNC(=O)CCc2ccc3n2[B-](F)(F)[N+]2=C(c4ccc[nH]4)C=CC2=C3)CC1 [Olanzapine-a-2-NB590] ; returns value.
0.92

* * *

targetDesc: FZD5 (Homo sapiens, UniProt Q13467)
Construct: purchased Promega (in-house HiBiT-GPCR construct library, NanoBRET)
Sequence (Q13467 27-585): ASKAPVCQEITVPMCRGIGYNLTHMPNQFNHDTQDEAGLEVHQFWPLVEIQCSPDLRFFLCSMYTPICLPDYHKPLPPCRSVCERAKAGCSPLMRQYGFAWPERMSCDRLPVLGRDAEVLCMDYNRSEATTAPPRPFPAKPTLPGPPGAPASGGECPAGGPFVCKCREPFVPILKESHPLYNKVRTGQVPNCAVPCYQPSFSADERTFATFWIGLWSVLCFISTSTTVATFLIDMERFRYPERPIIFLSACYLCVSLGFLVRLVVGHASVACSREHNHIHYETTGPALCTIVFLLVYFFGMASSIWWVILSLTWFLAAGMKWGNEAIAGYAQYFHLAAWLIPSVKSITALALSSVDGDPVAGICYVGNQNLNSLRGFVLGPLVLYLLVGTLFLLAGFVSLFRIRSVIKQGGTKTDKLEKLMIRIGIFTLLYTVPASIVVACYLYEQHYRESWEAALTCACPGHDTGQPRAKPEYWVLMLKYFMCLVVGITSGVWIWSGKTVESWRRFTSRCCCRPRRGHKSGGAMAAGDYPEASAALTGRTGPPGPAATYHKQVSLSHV
procedureDetails: NanoBRET screen HiBiT-FZD5 in HEK293
Format: binding
testSettings: FZD5; tracer 1μM
# Lookup of reported NanoBRET Fold Response keyed by entry

Take a look at these entries with their results.
Cc1cc2c(s1)Nc1ccccc1N=C2N1CCN(CCCNC(=O)CCOCCOCCOCCOCCNC(=O)CCc2ccc3n2[B-](F)(F)[N+]2=C(c4ccc[nH]4)C=CC2=C3)CC1 | 1.02
O=C(CCc1ccc2n1[B-](F)(F)[N+]1=C(c3ccc[nH]3)C=CC1=C2)NCc1ccc(C(=O)NCCOCCC(=O)N[C@@H]2CC[C@@]3(O)[C@H]4Cc5ccc(O)c6c5[C@@]3(CCN4CC3CC3)[C@H]2O6)cc1 [Naltrexone-3-NB590] | 0.98
COc1ccccc1N1CCN(CCCCN2C(=O)c3ccc(CNC(=O)CCOCCOCCOCCOCCNC(=O)CCc4ccc5n4[B-](F)(F)[N+]4=C(c6ccc[nH]6)C=CC4=C5)cc3C2=O)CC1 | 1.00
Cc1nc2n(c(=O)c1CCN1CCC(c3noc4cc(F)ccc34)CC1)CCCC2OC(=O)NCCOCCOCCOCCOCCNC(=O)CCc1ccc2n1[B-](F)(F)[N+]1=C(c3ccc[nH]3)C=CC1=C2 (centres unmarked) | 0.99

Turning to the following compound.
# get_value(readout='NanoBRET Fold Response', item= COc1ccccc1N1CCN(CCCCN2C(=O)c3ccc(CNC(=O)CCOCCNC(=O)c4ccc(CNC(=O)CCc5ccc6n5[B-](F)(F)[N+]5=C(c7ccc[nH]7)C=CC5=C6)cc4)cc3C2=O)CC1 )
1.00

* * *

Measured NanoBRET Fold Response of individual entries
targetDesc: GRM4 (Homo sapiens, UniProt Q14833)
Construct: purchased Promega (in-house HiBiT-GPCR construct library, NanoBRET)
Sequence (Q14833 33-912): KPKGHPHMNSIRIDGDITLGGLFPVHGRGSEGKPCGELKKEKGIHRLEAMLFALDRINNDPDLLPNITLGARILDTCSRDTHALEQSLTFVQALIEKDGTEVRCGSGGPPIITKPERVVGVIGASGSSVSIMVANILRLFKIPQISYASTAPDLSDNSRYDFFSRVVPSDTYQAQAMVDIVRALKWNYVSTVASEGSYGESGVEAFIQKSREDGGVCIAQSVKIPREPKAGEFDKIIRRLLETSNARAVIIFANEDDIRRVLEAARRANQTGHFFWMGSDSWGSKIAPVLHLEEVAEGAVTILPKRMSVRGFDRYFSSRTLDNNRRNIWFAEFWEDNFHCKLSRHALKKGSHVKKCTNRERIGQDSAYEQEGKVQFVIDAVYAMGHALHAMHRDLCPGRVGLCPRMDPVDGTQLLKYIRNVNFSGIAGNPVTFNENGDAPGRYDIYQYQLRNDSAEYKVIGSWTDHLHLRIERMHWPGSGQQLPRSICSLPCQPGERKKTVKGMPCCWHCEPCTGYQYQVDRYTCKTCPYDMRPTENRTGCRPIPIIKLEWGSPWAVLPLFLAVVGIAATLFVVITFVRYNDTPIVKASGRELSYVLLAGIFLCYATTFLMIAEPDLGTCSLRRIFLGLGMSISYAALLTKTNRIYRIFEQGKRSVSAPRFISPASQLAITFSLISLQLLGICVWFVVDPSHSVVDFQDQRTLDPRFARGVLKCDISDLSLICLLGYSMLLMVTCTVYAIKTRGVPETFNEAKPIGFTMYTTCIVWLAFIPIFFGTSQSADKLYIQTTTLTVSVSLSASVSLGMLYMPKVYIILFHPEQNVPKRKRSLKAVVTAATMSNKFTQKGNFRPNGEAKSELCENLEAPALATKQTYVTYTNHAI
procedureDetails: NanoBRET screen HiBiT-GRM4 in HEK293
Assay type: binding
testSettings: GRM4; tracer 0.1μM
Please state the value as a number alone, without comment.

See these solved cases before continuing.
Cc1cc2c(s1)Nc1ccccc1N=C2N1CCN(CCCNC(=O)CCOCCOCCOCCOCCNC(=O)CCc2ccc3n2[B-](F)(F)[N+]2=C(c4ccc[nH]4)C=CC2=C3)CC1 [Olanzapine-a-2-NB590] | 0.99
N#CN=C(NCCCOc1cccc(CN2CCCCC2)c1)NCCNC(=O)CCOCCOCCOCCOCCNC(=O)CCc1ccc2n1[B-](F)(F)[N+]1=C(c3ccc[nH]3)C=CC1=C2 [Aminopotentidine-2-NB590] | 1.02
CC(C)N(CC[C@H](c1ccccc1)c1cc(CCNC(=O)c2ccc(CNC(=O)CCc3ccc4n3[B-](F)(F)[N+]3=C(c5ccc[nH]5)C=CC3=C4)cc2)ccc1O)C(C)C [Tolterodine-BZ-NB590] | 1.02

Let us examine a further case.
GRM4 (Homo sapiens, UniProt Q14833) / NanoBRET Fold Response / O=C(CCc1ccc2n1[B-](F)(F)[N+]1=C(c3ccc[nH]3)C=CC1=C2)NCCOCCOCCNC(=O)OCCOCCN1CCN(C2=Nc3ccccc3Sc3ccccc32)CC1 [Quetiapine-a-2-NB590] : value?
0.99

* * *

targetDesc: SSTR2 (Homo sapiens)
Construct: purchased Promega (in-house HiBiT-GPCR construct library, NanoBRET)
Sequence (P30874 whole entry): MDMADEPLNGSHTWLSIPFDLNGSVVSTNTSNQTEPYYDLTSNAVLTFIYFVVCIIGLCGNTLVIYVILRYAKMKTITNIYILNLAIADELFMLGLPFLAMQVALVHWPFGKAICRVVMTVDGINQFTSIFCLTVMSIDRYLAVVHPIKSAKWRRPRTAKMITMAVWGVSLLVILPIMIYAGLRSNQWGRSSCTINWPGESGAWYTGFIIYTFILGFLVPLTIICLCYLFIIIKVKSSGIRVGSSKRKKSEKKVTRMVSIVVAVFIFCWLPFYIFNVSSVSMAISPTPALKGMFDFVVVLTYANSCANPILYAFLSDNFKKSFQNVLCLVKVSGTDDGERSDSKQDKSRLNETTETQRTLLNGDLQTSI
procedureDetails: NanoBRET screen HiBiT-SSTR2 in HEK293
Type: binding
testSettings: SSTR2; tracer 0.1μM
Recorded NanoBRET Fold Response, one value per entry.
Give your answer as a number; write no unit.

Look up NanoBRET Fold Response for this molecule: COc1ccccc1N1CCN(CCCCN2C(=O)c3ccc(CNC(=O)CCOCCNC(=O)c4ccc(CNC(=O)CCc5ccc6n5[B-](F)(F)[N+]5=C(c7ccc[nH]7)C=CC5=C6)cc4)cc3C2=O)CC1 [NAN-190-3-NB590]
1.00

* * *

In this section we review reported NanoBRET Fold Response values for a set of molecules.
targetDesc: NPBWR1 (Homo sapiens)
Construct: purchased Promega (in-house HiBiT-GPCR construct library, NanoBRET)
Sequence (P48145 whole entry): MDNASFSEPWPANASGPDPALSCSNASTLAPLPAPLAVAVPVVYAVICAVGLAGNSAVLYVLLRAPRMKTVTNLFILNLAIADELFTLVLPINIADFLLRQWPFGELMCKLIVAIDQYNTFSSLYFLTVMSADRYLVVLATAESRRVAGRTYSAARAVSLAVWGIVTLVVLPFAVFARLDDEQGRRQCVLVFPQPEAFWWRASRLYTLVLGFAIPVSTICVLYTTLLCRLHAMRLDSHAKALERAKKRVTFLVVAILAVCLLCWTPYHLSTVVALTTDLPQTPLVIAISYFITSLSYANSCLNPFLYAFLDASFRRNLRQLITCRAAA
procedureDetails: NanoBRET screen HiBiT-NPBWR1 in HEK293
Type: binding
testSettings: NPBWR1; tracer 0.1μM
// print number alone

Cc1cc2c(s1)Nc1ccccc1N=C2N1CCN(CCCNC(=O)CCOCCOCCOCCOCCNC(=O)CCc2ccc3n2[B-](F)(F)[N+]2=C(c4ccc[nH]4)C=CC2=C3)CC1 | 0.99
O=C(CCc1ccc2n1[B-](F)(F)[N+]1=C(c3ccc[nH]3)C=CC1=C2)NCCOCCOCCNC(=O)OCCOCCN1CCN(C2=Nc3ccccc3Sc3ccccc32)CC1 | 1.01

Request body: readout NanoBRET Fold Response, system NPBWR1 (Homo sapiens), query O=C(CCOCCOCCOCCOCCNC(=O)CCc1ccc2n1[B-](F)(F)[N+]1=C(c3ccc[nH]3)C=CC1=C2)NCCCN1CCN(C2=Nc3ccccc3Oc3ccc(Cl)cc32)CC1 . Return the value.
1.02

Which measured NanoBRET Fold Response belongs to COc1ccccc1N1CCN(CCCCN2C(=O)c3ccc(CNC(=O)CCOCCOCCOCCOCCNC(=O)CCc4ccc5n4[B-](F)(F)[N+]4=C(c6ccc[nH]6)C=CC4=C5)cc3C2=O)CC1 , tested on NPBWR1 (Homo sapiens)?
1.02

What is its NanoBRET Fold Response for NPBWR1 (Homo sapiens)? Entry: CC(C)N(CC[C@H](c1ccccc1)c1cc(CCNC(=O)c2ccc(CNC(=O)CCc3ccc4n3[B-](F)(F)[N+]3=C(c5ccc[nH]5)C=CC3=C4)cc2)ccc1O)C(C)C
1.00

* * *

targetDesc: CXCR6 (Homo sapiens, UniProt O00574)
Construct: purchased Promega (in-house HiBiT-GPCR construct library, NanoBRET)
Sequence (O00574 whole entry): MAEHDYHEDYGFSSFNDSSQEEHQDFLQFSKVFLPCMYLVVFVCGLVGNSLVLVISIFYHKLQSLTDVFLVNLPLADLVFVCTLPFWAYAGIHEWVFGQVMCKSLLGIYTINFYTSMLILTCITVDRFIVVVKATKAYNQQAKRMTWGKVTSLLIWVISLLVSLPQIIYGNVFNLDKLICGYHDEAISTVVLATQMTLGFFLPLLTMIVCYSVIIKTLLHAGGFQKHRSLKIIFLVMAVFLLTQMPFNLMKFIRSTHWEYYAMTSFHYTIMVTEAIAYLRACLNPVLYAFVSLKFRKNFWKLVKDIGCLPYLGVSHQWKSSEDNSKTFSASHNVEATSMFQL
procedureDetails: NanoBRET screen HiBiT-CXCR6 in HEK293
Type: binding
testSettings: CXCR6; tracer 0.1μM
quantityKind: NanoBRET Fold Response

Cc1nc2n(c(=O)c1CCN1CCC(c3noc4cc(F)ccc34)CC1)CCCC2OC(=O)NCCOCCOCCOCCOCCNC(=O)CCc1ccc2n1[B-](F)(F)[N+]1=C(c3ccc[nH]3)C=CC1=C2 (stereo not drawn) [Risperidone-2-NB590] | 1.00
CC(C)N(CC[C@H](c1ccccc1)c1cc(CCNC(=O)c2ccc(CNC(=O)CCc3ccc4n3[B-](F)(F)[N+]3=C(c5ccc[nH]5)C=CC3=C4)cc2)ccc1O)C(C)C [Tolterodine-BZ-NB590] | 0.99

API: value(readout=NanoBRET Fold Response, system=CXCR6 (Homo sapiens, UniProt O00574)) for record O=C(CCc1ccc2n1[B-](F)(F)[N+]1=C(c3ccc[nH]3)C=CC1=C2)NCCOCCOCCNC(=O)OCCOCCN1CCN(C2=Nc3ccccc3Sc3ccccc32)CC1 [Quetiapine-a-2-NB590]
0.98

* * *

Each item that follows carries a reported NanoBRET Fold Response.
targetDesc: CXCR6 (Homo sapiens)
Construct: purchased Promega (in-house HiBiT-GPCR construct library, NanoBRET)
procedureDetails: NanoBRET screen HiBiT-CXCR6 in HEK293
Format: binding
testSettings: CXCR6; tracer 1μM

O=C(CCOCCOCCOCCOCCNC(=O)CCc1ccc2n1[B-](F)(F)[N+]1=C(c3ccc[nH]3)C=CC1=C2)NCCCN1CCN(C2=Nc3ccccc3Oc3ccc(Cl)cc32)CC1 | 1.01
Cc1cc2c(s1)Nc1ccccc1N=C2N1CCN(CCCNC(=O)CCOCCOCCOCCOCCNC(=O)CCc2ccc3n2[B-](F)(F)[N+]2=C(c4ccc[nH]4)C=CC2=C3)CC1 | 0.98
COc1ccccc1N1CCN(CCCCN2C(=O)c3ccc(CNC(=O)CCOCCOCCOCCOCCNC(=O)CCc4ccc5n4[B-](F)(F)[N+]4=C(c6ccc[nH]6)C=CC4=C5)cc3C2=O)CC1 | 1.02

GET /values?readout=NanoBRET Fold Response&item= CC(C)N(CC[C@H](c1ccccc1)c1cc(CCNC(=O)c2ccc(CNC(=O)CCc3ccc4n3[B-](F)(F)[N+]3=C(c5ccc[nH]5)C=CC3=C4)cc2)ccc1O)C(C)C
0.98
